Parameter Kd: see the listing below.
# target-under-test: T1, ANTIBODY EXPRESSION CONTROL
# T1 construct: also called mouse anti-canine antibody (capture reagent of the expression control ELISA)
# assay-comment: SPR Biacore, expression control
Enter your answer as a number in nM; do not include the unit.

// lookup Kd for Mu_02D09_VH (SEQ ID NO: 31)_D31A (antibody, V domains shown) VH: EVQLVESGGGLVKPGGSLTLSCAASGFTFSAYGMHWLRQAPEKGLEWVAYISSGSRAVFFADTVKGRFTISRDNAKNTLFLQMTSLRSDDTAMYYCARDRYDGRGFAYWGQGTLVTVSA VL: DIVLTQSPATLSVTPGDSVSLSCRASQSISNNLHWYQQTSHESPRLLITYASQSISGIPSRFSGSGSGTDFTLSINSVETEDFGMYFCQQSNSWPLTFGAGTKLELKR
0.0685

// lookup Kd for Mu_02D09_VH (SEQ ID NO: 31)_D99A (antibody, V domains shown) VH: EVQLVESGGGLVKPGGSLTLSCAASGFTFSDYGMHWLRQAPEKGLEWVAYISSGSRAVFFADTVKGRFTISRDNAKNTLFLQMTSLRSDDTAMYYCARARYDGRGFAYWGQGTLVTVSA VL: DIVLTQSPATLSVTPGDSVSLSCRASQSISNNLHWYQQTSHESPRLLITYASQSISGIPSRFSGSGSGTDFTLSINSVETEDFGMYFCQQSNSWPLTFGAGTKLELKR
1.63

// lookup Kd for mouse: canine 02D09 chimera (antibody, V domains shown, Mouse variable domains on canine IgG constant regions; also called 02D09 (Mouse:Canine); chimeric 02D09) VH: EVQLVESGGGLVKPGGSLTLSCAASGFTFSDYGMHWLRQAPEKGLEWVAYISSGSRAVFFADTVKGRFTISRDNAKNTLFLQMTSLRSDDTAMYYCARDRYDGRGFAYWGQGTLVTVSA VL: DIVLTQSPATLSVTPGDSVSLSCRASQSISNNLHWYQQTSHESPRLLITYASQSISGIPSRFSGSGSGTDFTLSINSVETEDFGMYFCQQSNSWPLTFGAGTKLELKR
0.6
